// IC50 lookup, one value per entry
# System: osteoclast precursors
# METHOD SUMMARY: Osteoclast tartrate-resistant acid phosphatase assay
# Type: cell-based
# DETAILS: Osteoclast; 7-14 days, RANKL and M-CSF

Recorded IC50, per entry:
CC(C)(C)C(=O)NC(=O)Nc1ccc(Oc2ccnc(C(=O)NC3CC3)c2)cn1 : 0.01 to 0.1 µM
CN1CCC(NC(=O)c2cc(Oc3ccc(NC(=O)NC(=O)C(C)(C)C)nc3)ccn2)CC1 : 0.01 to 0.1 µM
COC(C)(C)C(=O)NC(=O)Nc1ccc(Oc2ccnc(NC(=O)C3CC3)c2)cn1 : < 0.01 µM
COC(C)(C)C(=O)NC(=O)Nc1ccc(Oc2ccnc(NC(C)=O)c2)c(C)n1 : 0.01 to 0.1 µM
CC(=O)Nc1cc(Oc2ccc(NC(=O)NC(=O)C(C)(C)C)nc2C)ccn1 : < 0.01 µM
COC1(C(=O)NC(=O)Nc2ccc(Oc3ccnc(NC(=O)C4CC4)c3)cn2)CC1 : < 0.01 µM
CC(C)(C)C(=O)NC(=O)Nc1ccc(Oc2ccnc(NC(=O)N3CCOCC3)c2)cn1 : < 0.01 µM

Below: the item to evaluate.
**Q:** What value of IC50 has been reported for the following molecule? CN(C)[C@@H]1CCN(C(=O)Nc2cc(Oc3ccc(NC(=O)NC(=O)C(C)(C)C)nc3)ccn2)C1
**A:** < 0.01 µM

----------
# SYSTEM NAME: unphosphorylated PDGFRβ kinase (uPDGFRβ, Seq. ID No. 3) (Homo sapiens, UniProt P09619)
# Sequence (P09619 557-1105): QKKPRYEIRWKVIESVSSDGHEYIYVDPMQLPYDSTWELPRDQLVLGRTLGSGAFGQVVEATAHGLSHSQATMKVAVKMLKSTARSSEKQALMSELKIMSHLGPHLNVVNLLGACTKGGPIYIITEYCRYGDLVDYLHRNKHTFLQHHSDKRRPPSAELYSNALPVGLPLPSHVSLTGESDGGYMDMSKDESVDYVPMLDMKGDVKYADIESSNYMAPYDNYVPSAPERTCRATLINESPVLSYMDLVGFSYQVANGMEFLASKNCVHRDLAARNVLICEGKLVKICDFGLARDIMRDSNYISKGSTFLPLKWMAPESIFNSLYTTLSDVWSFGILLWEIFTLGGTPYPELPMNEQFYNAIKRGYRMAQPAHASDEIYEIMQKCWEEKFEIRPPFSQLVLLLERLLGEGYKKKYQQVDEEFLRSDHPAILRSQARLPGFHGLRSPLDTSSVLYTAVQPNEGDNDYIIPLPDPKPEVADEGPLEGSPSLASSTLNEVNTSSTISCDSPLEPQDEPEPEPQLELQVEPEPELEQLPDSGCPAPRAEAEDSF
# METHOD SUMMARY: Unphosphorylated PDGFRβ kinase assay (pyruvate kinase/lactate dehydrogenase coupled)
# DETAILS: ATP 500 μM
List of IC50 values.

CCC(=O)Nc1cc(Oc2ccc(NC(=O)NC(=O)C3(OC)CC3)nc2)ccn1 : > 1000 nM

**Q:** Endpoint output: IC50 of COC1(C(=O)NC(=O)Nc2ccc(Oc3ccnc(NC(C)=O)c3)cn2)CCCC1 . Value?
**A:** 10 to 100 nM

**Q:** Now the same for CC(C)(C)C(=O)NC(=O)Nc1ccc(Oc2ccnc(NC(=O)CN3CCCC3)c2)cn1
**A:** > 1000 nM

**Q:** Again, but for CN(C)C(=O)Nc1cc(Oc2ccc(NC(=O)NC(=O)C3CCOCC3)nc2)ccn1
**A:** 10 to 100 nM

**Q:** How about this molecule: CN(C)C1CCN(C(=O)Nc2cc(Oc3ccc(NC(=O)NC(=O)C(C)(C)C)nc3)ccn2)CC1
**A:** 100 to 1000 nM

**Q:** Quick one: CN1CCN(C(=O)Nc2cc(Oc3ccc(NC(=O)NC(=O)C(C)(C)C)nc3)ccn2)CC1
**A:** 100 to 1000 nM

**Q:** And then CNC(=O)Nc1cc(Oc2ccc(NC(=O)NC(=O)C(C)(C)C)nc2)ccn1 , what is it?
**A:** 100 to 1000 nM

**Q:** Also Cn1cnc(C(=O)Nc2cc(Oc3ccc(NC(=O)NC(=O)C(C)(C)C)nc3)ccn2)c1 ?
**A:** 100 to 1000 nM

----------
# SYSTEM NAME: unphosphorylated PDGFRβ kinase (uPDGFRβ, Seq. ID No. 3) (Homo sapiens, UniProt P09619)
# METHOD SUMMARY: Unphosphorylated PDGFRβ kinase assay (pyruvate kinase/lactate dehydrogenase coupled)
# DETAILS: ATP 500 μM
# From the text: Unphosyhorylated PDGFRβ (uPDGFRβkinase (Seq. ID No. 3) assay
MEASURED ATTRIBUTE: IC50

Before answering, review these 2 worked examples.
CC(=O)Nc1cc(Oc2ccc(NC(=O)NC(=O)C(C)(C)C)nc2C)ccn1 [Example 9] : > 1000 nM
CCC(=O)Nc1cc(Oc2ccc(NC(=O)NC(=O)C(C)(C)C)nc2)ccn1 [Example 24] : 100 to 1000 nM

**Q:** IC50 lookup needed for COC1(C(=O)NC(=O)Nc2ccc(Oc3ccnc(NC(=O)C4CCN(C)CC4)c3)cn2)CC1 [Example 49] , thanks.
**A:** > 1000 nM

**Q:** Thanks! And CC(=O)Nc1cc(Oc2ccc(NC(=O)NC(=O)C3CCCC3)nc2C)ccn1 [Example 8] ?
**A:** 10 to 100 nM

**Q:** Same thing, different compound: CC(C)NC(=O)c1cc(Oc2ccc(NC(=O)NC(=O)C(C)(C)C)nc2)ccn1 [Example 73]
**A:** > 1000 nM

**Q:** Queued: CC(C)(C)C(=O)NC(=O)Nc1ccc(Oc2ccnc(NC(=O)CC#N)c2)cn1 [Example 56]
**A:** 100 to 1000 nM

**Q:** Now consider COC(C)(C)C(=O)NC(=O)Nc1ccc(Oc2ccnc(NC(=O)C3CC3)c2)cn1 [Example 31] and answer again.
**A:** 100 to 1000 nM

**Q:** Would you mind doing COC1(C(=O)NC(=O)Nc2ccc(Oc3ccnc(NC(C)=O)c3)cn2)CC1 [Example 27] as well?
**A:** 100 to 1000 nM

----------
IC50 overview
# Tested on: osteoclast precursors
# METHOD SUMMARY: Osteoclast tartrate-resistant acid phosphatase assay
# Format: cell-based
# DETAILS: Osteoclast; 7-14 days, RANKL and M-CSF

CN(C)C1CC(C(=O)Nc2cc(Oc3ccc(NC(=O)NC(=O)C(C)(C)C)nc3)ccn2)C1 (stereo not shown) : 10 to 100 nM
COC(C)(C)C(=O)NC(=O)Nc1ccc(Oc2ccnc(NC(C)=O)c2)cn1 : < 10 nM
CC(C)(C)C(=O)NC(=O)Nc1ccc(Oc2ccnc(NC(=O)CC#N)c2)cn1 : 100 to 1000 nM
CC(=O)Nc1cc(Oc2ccc(NC(=O)NC(=O)C3CCCC3)nc2C)ccn1 : < 10 nM
Cc1nc(NC(=O)NC(=O)C(C)(C)C)ccc1Oc1ccnc(NC(=O)N2CCOCC2)c1 : < 10 nM
CN(C)C(=O)Nc1cc(Oc2ccc(NC(=O)NC(=O)C3(C)CC3)nc2)ccn1 : < 10 nM
Cc1nc(NC(=O)NC(=O)C(C)(C)C)ccc1Oc1ccnc(NC(=O)C2CC2)c1 : < 10 nM
CN(C)C(=O)Nc1cc(Oc2ccc(NC(=O)NC(=O)C3(C)CCOCC3)nc2)ccn1 : < 10 nM
Cn1cc(C(=O)Nc2cc(Oc3ccc(NC(=O)NC(=O)C(C)(C)C)nc3)ccn2)cn1 : < 10 nM
CC(=O)Nc1cc(Oc2ccc(NC(=O)NC(=O)C3CC4CCC3O4)nc2C)ccn1 (stereo not shown) : 10 to 100 nM

**Q:** Suppose we examine the compound CC(=O)Nc1cc(Oc2ccc(NC(=O)NC(=O)C3CC4CCC3O4)nc2)ccn1 (stereo not shown) ; what IC50 value has been reported?
**A:** < 10 nM

**Q:** Same question for CC(C)(C)C(=O)NC(=O)Nc1ccc(Oc2ccnc(NC(=O)C3CC3)c2)cn1 please.
**A:** < 10 nM

----------
Listed compounds paired with reported IC50
# SYSTEM NAME: phospho-FMS in THP-1 cells (Homo sapiens, UniProt P07333)
# Construct: endogenous in cells
# Sequence (P07333 20-972): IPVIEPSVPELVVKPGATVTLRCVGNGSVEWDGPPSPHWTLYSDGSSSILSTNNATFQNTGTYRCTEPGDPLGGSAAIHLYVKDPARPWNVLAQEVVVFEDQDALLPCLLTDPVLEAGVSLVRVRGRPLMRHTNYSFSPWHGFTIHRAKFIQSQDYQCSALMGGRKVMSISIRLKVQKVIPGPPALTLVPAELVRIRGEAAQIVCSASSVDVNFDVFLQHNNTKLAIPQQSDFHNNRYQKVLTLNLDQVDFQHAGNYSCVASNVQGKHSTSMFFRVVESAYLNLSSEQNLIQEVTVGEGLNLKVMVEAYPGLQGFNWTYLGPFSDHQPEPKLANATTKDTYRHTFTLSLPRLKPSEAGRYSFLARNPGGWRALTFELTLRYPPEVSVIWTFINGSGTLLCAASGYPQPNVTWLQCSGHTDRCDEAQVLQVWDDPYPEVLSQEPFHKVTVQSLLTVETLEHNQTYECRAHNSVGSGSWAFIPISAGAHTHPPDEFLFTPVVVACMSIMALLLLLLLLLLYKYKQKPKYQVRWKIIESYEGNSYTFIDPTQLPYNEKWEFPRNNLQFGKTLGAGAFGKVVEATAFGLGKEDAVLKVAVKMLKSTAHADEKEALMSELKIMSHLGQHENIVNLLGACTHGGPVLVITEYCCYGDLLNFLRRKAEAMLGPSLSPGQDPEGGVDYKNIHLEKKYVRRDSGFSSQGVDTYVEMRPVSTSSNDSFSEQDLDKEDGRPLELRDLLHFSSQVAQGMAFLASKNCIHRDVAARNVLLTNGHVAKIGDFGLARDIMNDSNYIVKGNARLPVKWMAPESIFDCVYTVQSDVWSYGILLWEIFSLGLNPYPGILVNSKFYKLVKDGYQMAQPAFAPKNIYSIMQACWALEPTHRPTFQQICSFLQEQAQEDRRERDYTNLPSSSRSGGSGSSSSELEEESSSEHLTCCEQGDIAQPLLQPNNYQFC
# METHOD SUMMARY: Phospho-FMS ELISA assay in THP-1 cells
# DETAILS: 4 hours compound, M-CSF stimulated; read-out: pFMS inhibition in THP-1 cells

**Q:** Please look up its IC50: CN1CCC(C(=O)Nc2cc(Oc3ccc(NC(=O)NC(=O)C4(C)CC4)nc3)ccn2)CC1
**A:** 10 to 100 nM

**Q:** Request: CCC(=O)Nc1cc(Oc2ccc(NC(=O)NC(=O)C(C)(C)OC)nc2)ccn1
**A:** < 10 nM

**Q:** Try this compound next: COC1(C(=O)NC(=O)Nc2ccc(Oc3ccnc(NC(C)=O)c3)cn2)CC1
**A:** 10 to 100 nM

**Q:** Then CC(=O)Nc1cc(Oc2ccc(NC(=O)NC(=O)C3CCOCC3)nc2C)ccn1 ?
**A:** < 10 nM

**Q:** Now give it for COC1(C(=O)NC(=O)Nc2ccc(Oc3ccnc(NC(=O)C4CC4)c3)cn2)CC1 too.
**A:** 10 to 100 nM

**Q:** Try the compound CNC(=O)c1cc(Oc2ccc(NC(=O)NC(=O)C(C)(C)OC)nc2)ccn1
**A:** < 10 nM

**Q:** What would you report for CCC(=O)Nc1cc(Oc2ccc(NC(=O)NC(=O)C(C)(C)C)nc2C)ccn1 ?
**A:** 10 to 100 nM

**Q:** Quick one: Cc1nc(NC(=O)NC(=O)C(C)(C)C)ccc1Oc1ccnc(NC(=O)C2CC2)c1
**A:** < 10 nM

----------
# SYSTEM NAME: unphosphorylated c-KIT kinase (uKIT, Seq. ID no. 2) (Homo sapiens, UniProt P10721)
# Construct: uKit with N-terminal GST fusion used for
# Sequence (P10721 with tags, fused parts or gaps): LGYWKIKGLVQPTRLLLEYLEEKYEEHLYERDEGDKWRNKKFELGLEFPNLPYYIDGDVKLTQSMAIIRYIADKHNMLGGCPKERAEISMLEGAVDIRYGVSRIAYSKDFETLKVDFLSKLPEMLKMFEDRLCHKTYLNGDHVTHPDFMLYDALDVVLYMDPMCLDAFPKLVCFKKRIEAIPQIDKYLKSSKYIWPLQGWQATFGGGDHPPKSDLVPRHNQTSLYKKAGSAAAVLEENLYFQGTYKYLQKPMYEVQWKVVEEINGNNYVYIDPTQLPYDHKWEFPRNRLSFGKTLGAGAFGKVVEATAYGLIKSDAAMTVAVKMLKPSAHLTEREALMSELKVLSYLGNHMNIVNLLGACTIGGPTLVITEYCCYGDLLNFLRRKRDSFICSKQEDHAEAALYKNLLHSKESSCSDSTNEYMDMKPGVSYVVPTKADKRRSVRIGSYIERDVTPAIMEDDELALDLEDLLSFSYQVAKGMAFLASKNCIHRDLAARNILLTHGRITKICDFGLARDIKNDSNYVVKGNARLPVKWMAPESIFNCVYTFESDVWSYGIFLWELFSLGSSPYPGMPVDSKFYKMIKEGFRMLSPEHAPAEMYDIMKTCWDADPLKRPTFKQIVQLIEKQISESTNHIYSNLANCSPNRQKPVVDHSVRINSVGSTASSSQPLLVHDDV
# METHOD SUMMARY: uKit kinase assay (pyruvate kinase/lactate dehydrogenase coupled)
# DETAILS: ATP 2000 μM
pIC50: −log10 of the molar value.
Reported pIC50 values for a set of molecules

CNC(=O)Nc1cc(Oc2ccc(NC(=O)NC(=O)C(C)(C)C)nc2)ccn1 : < 6.00

**Q:** Quick check: pIC50 of CC(=O)Nc1cc(Oc2ccc(NC(=O)NC(=O)C3CC4CCC3O4)nc2C)ccn1 (centres unmarked) ?
**A:** < 6.00

**Q:** Same again, this time with Cn1cc(C(=O)Nc2cc(Oc3ccc(NC(=O)NC(=O)C(C)(C)C)nc3)ccn2)cn1
**A:** 7.00 to 8.00

**Q:** Would you kindly repeat that for CN(C)C1CCN(C(=O)Nc2cc(Oc3ccc(NC(=O)NC(=O)C(C)(C)C)nc3)ccn2)CC1 ?
**A:** < 6.00

**Q:** Another molecule to check: CC(=O)Nc1cc(Oc2ccc(NC(=O)NC(=O)C3(C)CCC3)nc2C)ccn1
**A:** 6.00 to 7.00

**Q:** Another molecule to look at: COCCNC(=O)Nc1cc(Oc2ccc(NC(=O)NC(=O)C(C)(C)C)nc2)ccn1
**A:** < 6.00

**Q:** Next entry: CN(C)C1CC(C(=O)Nc2cc(Oc3ccc(NC(=O)NC(=O)C(C)(C)C)nc3)ccn2)C1 (centres unmarked) [Example 60]
**A:** < 6.00

**Q:** Note, next up: CC(=O)Nc1cc(Oc2ccc(NC(=O)NC(=O)C3CCOCC3)nc2C)ccn1
**A:** < 6.00
